Where do the numbers come from? From the supplement of paper PMC10065799.

- target.of.assay: EPHB1 (UniProt P54762)
- Sequence (P54762 whole entry, looked up): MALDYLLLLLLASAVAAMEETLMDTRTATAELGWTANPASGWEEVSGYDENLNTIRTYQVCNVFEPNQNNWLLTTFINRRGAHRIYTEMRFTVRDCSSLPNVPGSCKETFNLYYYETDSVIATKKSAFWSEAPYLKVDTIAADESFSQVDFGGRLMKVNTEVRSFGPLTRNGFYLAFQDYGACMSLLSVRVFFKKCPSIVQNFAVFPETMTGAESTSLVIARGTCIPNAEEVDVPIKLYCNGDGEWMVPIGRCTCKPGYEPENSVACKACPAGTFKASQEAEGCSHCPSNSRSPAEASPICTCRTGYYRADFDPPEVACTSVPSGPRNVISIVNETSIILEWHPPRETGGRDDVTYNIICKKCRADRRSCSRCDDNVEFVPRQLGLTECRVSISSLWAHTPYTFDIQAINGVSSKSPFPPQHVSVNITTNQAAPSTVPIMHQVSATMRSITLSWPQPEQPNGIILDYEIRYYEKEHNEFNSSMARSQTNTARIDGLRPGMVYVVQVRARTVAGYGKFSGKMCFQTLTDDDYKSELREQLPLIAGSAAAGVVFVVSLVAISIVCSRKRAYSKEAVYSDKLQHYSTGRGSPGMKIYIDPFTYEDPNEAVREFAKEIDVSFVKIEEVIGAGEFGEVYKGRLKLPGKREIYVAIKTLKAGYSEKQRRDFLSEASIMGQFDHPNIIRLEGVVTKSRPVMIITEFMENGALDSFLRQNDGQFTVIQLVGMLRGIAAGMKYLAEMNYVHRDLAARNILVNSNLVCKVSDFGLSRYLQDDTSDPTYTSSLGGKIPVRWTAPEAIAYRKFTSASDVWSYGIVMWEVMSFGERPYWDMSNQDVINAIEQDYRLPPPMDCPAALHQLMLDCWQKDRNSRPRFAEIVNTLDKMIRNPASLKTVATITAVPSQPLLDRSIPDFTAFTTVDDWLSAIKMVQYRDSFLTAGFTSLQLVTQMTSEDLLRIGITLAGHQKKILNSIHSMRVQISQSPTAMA
- procedure.text: phosphorylation enrichment, bacterial display (enrichment ratio); higher = better substrate or ligand; peptides without Tyr show the background
reported.metric: phosphorylation enrichment
Answers are plain numbers.

Before answering, review these 4 worked examples.
{"residue.sequence": "HAVVDYMRRQK [ATM_Y1915_L1910H]", "phosphorylation enrichment": 0.701}
{"residue.sequence": "EMFNPCFGLFE [NEDD4L_Y679_Y679C_YF]", "phosphorylation enrichment": 0.71}
{"residue.sequence": "SNYRAYATEPQ [TNNI3_Y29_H34Q]", "phosphorylation enrichment": 0.461}
{"residue.sequence": "GDFLSYREFHS [ERBIN_Y1107_YF]", "phosphorylation enrichment": 0.386}

Could you report phosphorylation enrichment for every entry in the following list?
1. NHYKIHNLCAE [PTEN_Y68_Y68H]
2. NALVQYQEMEK [BBS4_Y395_A393V]

Return:
[0.56, 0.507]

###

- target.of.assay: Fyn (UniProt P06241)
- Sequence (P06241 whole entry, looked up): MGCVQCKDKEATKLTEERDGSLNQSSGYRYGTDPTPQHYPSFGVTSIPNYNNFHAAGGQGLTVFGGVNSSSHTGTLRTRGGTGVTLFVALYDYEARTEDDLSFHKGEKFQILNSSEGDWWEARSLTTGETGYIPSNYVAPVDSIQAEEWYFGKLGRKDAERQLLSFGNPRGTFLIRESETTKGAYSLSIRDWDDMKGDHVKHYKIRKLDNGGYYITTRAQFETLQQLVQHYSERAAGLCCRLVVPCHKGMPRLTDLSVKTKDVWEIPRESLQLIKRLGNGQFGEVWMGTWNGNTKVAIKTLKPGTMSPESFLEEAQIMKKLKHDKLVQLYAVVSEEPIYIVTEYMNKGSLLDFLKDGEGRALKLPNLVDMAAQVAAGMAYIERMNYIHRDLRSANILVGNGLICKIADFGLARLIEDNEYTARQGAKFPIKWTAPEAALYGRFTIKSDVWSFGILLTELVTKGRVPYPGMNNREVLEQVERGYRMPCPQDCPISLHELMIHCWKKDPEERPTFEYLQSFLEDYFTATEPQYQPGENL
- procedure.text: phosphorylation enrichment, bacterial display (enrichment ratio); higher = better substrate or ligand; peptides without Tyr show the background
reported.metric: phosphorylation enrichment
Give bare numbers.

Would you please look over these solved cases?
{"residue.sequence": "EAGKVYLKAPM [CBFB_Y96]", "target.of.assay": "Fyn (UniProt P06241)", "phosphorylation enrichment": 0.492}
{"residue.sequence": "HEHVGYTTLNR [CHN1_Y148_Y143H]", "target.of.assay": "Fyn (UniProt P06241)", "phosphorylation enrichment": 0.489}
{"residue.sequence": "KELAKYFKLHH [AK7_Y390_N389K_YF]", "target.of.assay": "Fyn (UniProt P06241)", "phosphorylation enrichment": 0.505}

Give me phosphorylation enrichment for each of these sequences, listed below.
1. YGLPRYRWLTH [TSPAN12_Y143]
2. KHMADYPDCKY [SOX11_Y113_Y116C]
3. PELINYHQHNF [BTK_Y361_S366F]
4. CEHRGYLFLAI [TEK_Y897_YF]
5. DRTGHYLCNAC [GATA1_Y223]
6. RFMVGYEMLAQ [GALT_Y339_K334R]

Return:
1. 0.492
2. 0.251
3. 0.789
4. 0.443
5. 0.389
6. 0.719

###

- target.of.assay: EPHB1 (UniProt P54762)
- procedure.text: phosphorylation enrichment, bacterial display (enrichment ratio); higher = better substrate or ligand; peptides without Tyr show the background
reported.metric: phosphorylation enrichment

For each of the sequences below, note its phosphorylation enrichment.
1. RRIHSNRGHLW [VHL_Y112_Y112N]
2. AESPEYVHMYT [FAM111A_Y511]
3. IVRSLYKDLED [VHL_Y185_E186K]
4. YKRAVYCIIGR [NUP93_Y391]
5. FSGLAYTMERS [GLUD1_Y512_H507Y_YF]

Return:
[0.496, 0.486, 0.497, 0.506, 0.492]

###

- target.of.assay: EPHB1 (UniProt P54762)
- procedure.text: phosphorylation enrichment, bacterial display (enrichment ratio); higher = better substrate or ligand; peptides without Tyr show the background
reported.metric: phosphorylation enrichment
Numbers only.

Illustrative cases are given below, each with its answer.
{"residue.sequence": "VLNDAYENLTR [SYNE2_Y3255]", "target.of.assay": "EPHB1 (UniProt P54762)", "phosphorylation enrichment": 0.531}
{"residue.sequence": "EQRRAYLEGTC [HLA-C_Y183_L180R]", "target.of.assay": "EPHB1 (UniProt P54762)", "phosphorylation enrichment": 0.578}
{"residue.sequence": "LQRCKYSHMEP [TEX45_Y434]", "target.of.assay": "EPHB1 (UniProt P54762)", "phosphorylation enrichment": 0.513}
{"residue.sequence": "HIPFRYPKEFQ [IDS_Y234]", "target.of.assay": "EPHB1 (UniProt P54762)", "phosphorylation enrichment": 0.521}
{"residue.sequence": "LRVHSYKSMQP [DRC7_Y516]", "target.of.assay": "EPHB1 (UniProt P54762)", "phosphorylation enrichment": 0.526}
{"residue.sequence": "SVTCTYSPAFN [TP53_Y126_L130F]", "target.of.assay": "EPHB1 (UniProt P54762)", "phosphorylation enrichment": 0.8}
{"residue.sequence": "IDSTPYRQWYE [RPS8_Y109]", "target.of.assay": "EPHB1 (UniProt P54762)", "phosphorylation enrichment": 0.455}
{"residue.sequence": "TGEKLYQRKEF [ZNF283_Y627]", "target.of.assay": "EPHB1 (UniProt P54762)", "phosphorylation enrichment": 0.62}

List phosphorylation enrichment for every entry below, keeping the order given.
1. VASSLYDILAR [GLB1_Y294]
2. GRFCGYKSKHG [EPHA3_Y570]

Return:
[1.16, 0.506]

Dear reader, for each entry below, please note its phosphorylation enrichment.
1. FADIAYIYRHG [PAH_Y166_N167I]
2. LITTLYSGFLG [KCNQ1_Y267_I268S]
3. DFDNLYFWDQD [ERBB2_Y1221_A1216D_YF]
4. SGRSGYCLGTR [SCO1_Y60_P58S]
5. KEGSAYGSQSV [NFKB2_Y868_D865G]
6. AAVDEYLEHRR [FAM221A_Y17_Y20H]
7. NKEAICSGYIR [SMCHD1_Y283_Y283C]

Return:
1. 0.506
2. 0.965
3. 1.57
4. 0.309
5. 0.461
6. 0.562
7. 0.52

List phosphorylation enrichment for every entry below, keeping the order given.
1. ADARMYGVLLW [PLP1_Y207_P211L]
2. RGFRVYFTPDS [PTPRF_Y450_YF]
3. KWHREYNSKFV [RICTOR_Y835_YF]

Return:
0.559
0.583
0.35

###

- target.of.assay: Hck (UniProt P08631)
- Sequence (P08631 whole entry, looked up): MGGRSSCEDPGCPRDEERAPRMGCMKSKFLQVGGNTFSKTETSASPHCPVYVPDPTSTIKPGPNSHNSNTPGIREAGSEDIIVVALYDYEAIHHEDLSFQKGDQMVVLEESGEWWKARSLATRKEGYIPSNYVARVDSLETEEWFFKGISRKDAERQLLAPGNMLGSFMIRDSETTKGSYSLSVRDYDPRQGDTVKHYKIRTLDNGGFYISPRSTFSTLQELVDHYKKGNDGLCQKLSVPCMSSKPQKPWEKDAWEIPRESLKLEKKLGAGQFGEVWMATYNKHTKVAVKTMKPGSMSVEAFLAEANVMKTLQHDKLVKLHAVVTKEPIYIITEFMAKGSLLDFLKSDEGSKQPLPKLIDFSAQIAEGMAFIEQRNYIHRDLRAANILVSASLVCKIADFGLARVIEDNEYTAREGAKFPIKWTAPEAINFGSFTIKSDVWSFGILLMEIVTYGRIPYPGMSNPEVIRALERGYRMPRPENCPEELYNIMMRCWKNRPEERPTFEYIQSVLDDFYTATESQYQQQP
- procedure.text: phosphorylation enrichment, bacterial display (enrichment ratio); higher = better substrate or ligand; peptides without Tyr show the background
reported.metric: phosphorylation enrichment
Give bare numbers.

Field: example entries. Status: answers known.
{"residue.sequence": "SNYRAYATEPQ [TNNI3_Y29_H34Q]", "phosphorylation enrichment": 0.497}
{"residue.sequence": "YSQNICIQNRN [PKP2_Y631_Y631C]", "phosphorylation enrichment": 0.501}

Field phosphorylation enrichment (system: Hck (UniProt P08631)) for entry KTNVSYCGALD [CACNB4_Y103] = 0.503

###

- target.of.assay: EPHB2 (UniProt P29323)
- Sequence (P29323 whole entry, looked up): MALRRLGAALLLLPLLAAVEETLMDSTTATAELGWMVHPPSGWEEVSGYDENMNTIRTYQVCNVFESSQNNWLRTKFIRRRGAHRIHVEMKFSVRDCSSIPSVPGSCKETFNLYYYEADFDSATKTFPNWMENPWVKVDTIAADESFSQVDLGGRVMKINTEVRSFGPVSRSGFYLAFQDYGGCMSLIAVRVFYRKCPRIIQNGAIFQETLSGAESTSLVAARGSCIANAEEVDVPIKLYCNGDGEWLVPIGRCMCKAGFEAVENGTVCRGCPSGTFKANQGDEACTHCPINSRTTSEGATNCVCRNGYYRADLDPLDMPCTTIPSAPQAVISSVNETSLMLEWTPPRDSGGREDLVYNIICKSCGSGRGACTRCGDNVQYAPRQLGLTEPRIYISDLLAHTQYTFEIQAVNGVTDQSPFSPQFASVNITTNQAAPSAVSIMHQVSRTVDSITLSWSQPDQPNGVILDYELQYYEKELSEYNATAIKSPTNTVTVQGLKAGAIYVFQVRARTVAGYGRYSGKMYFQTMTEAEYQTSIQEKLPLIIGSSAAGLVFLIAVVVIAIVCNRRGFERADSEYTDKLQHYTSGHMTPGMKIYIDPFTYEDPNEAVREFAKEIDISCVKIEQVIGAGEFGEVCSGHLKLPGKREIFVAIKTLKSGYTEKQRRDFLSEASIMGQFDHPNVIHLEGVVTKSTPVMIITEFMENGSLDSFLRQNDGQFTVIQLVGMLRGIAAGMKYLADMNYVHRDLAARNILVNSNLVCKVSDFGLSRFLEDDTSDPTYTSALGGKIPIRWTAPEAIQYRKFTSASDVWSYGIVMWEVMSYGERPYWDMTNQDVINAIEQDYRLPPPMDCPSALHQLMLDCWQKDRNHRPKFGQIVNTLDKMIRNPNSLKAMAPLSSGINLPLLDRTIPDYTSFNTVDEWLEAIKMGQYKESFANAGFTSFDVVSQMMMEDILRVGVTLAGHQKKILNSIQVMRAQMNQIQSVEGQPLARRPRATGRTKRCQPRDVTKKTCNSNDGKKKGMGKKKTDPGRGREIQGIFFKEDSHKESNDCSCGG
- procedure.text: phosphorylation enrichment, bacterial display (enrichment ratio); higher = better substrate or ligand; peptides without Tyr show the background
reported.metric: phosphorylation enrichment
Give bare numbers.

// solved cases for phosphorylation enrichment follow
{"residue.sequence": "GQECKYPPTQD [METAP2_Y137_E136K]", "numeric.readout": 0.507}
{"residue.sequence": "ELQGTYTSLQQ [KIF3C_Y574_R571Q]", "numeric.readout": 0.862}
{"residue.sequence": "FGLDHYQCDCT [PTGS1_Y54_R53H]", "numeric.readout": 0.5}
{"residue.sequence": "IAINKYGVSLI [MYO7A_Y2136]", "numeric.readout": 0.613}
{"residue.sequence": "AEEEIYGIFGA [SRCtide_2014]", "numeric.readout": 1.36}

Hello, I would appreciate it if you could give phosphorylation enrichment for each entry below.
1. MKGEYYRYLAE [YWHAG_Y131_D129E]
2. HAVVDYMRRQK [ATM_Y1915_L1910H]

Return:
0.779
1.03

###

- target.of.assay: EPHB2 (UniProt P29323)
- procedure.text: phosphorylation enrichment, bacterial display (enrichment ratio); higher = better substrate or ligand; peptides without Tyr show the background
reported.metric: phosphorylation enrichment
Numbers only.

Please review the following examples before continuing.
{"residue.sequence": "CTTIHQNFMCN [TP53_Y234_Y234Q_YF]", "numeric.readout": 0.497}
{"residue.sequence": "QLRPGYIPIPV [BAG3_Y93]", "numeric.readout": 0.592}
{"residue.sequence": "DPHQQYYIAMD [TBX15_Y159]", "numeric.readout": 0.593}

# input for lookup
The recorded phosphorylation enrichment for MKGDFYRFLAE [YWHAG_Y131_YF] is 0.494

###

- target.of.assay: Grb2 SH2 (UniProt P62993)
- Sequence (P62993 whole entry, looked up): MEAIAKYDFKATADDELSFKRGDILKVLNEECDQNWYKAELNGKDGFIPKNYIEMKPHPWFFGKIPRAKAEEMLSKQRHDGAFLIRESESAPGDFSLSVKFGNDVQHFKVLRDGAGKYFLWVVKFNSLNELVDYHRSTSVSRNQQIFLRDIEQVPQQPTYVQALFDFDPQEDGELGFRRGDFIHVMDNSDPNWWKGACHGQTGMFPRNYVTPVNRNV
- procedure.text: SH2 binding enrichment of the phosphorylated peptide, bacterial display (enrichment ratio); higher = better substrate or ligand; peptides without Tyr show the background
Exercise: state measured SH2 binding enrichment for each of the sequences provided.
Numbers only.

{"residue.sequence": "LQLLGHRPVFS [CHST6_Y358_Y358H_YF]", "SH2 binding enrichment": 0.912}
{"residue.sequence": "ISGLKYPVSQQ [BTK_Y375_R372G]", "SH2 binding enrichment": 0.879}
{"residue.sequence": "FAREGYSALPQ [SARS2_Y52_YF]", "SH2 binding enrichment": 0.914}
{"residue.sequence": "KTNVSYCGALD [CACNB4_Y103]", "SH2 binding enrichment": 0.9}

Consider VGQRPYQPLPE [REEP3_Y170] . Its measured SH2 binding enrichment is 1.01
